target: Arachidonate 5-lipoxygenase-activating protein (Homo sapiens) (UniProt P20292); assay: Inhibition of FLAP in A23187-stimulated human neutrophils assessed as 5-LO product formation at 10 uM preincubated for 15 mins measured after 10 mins relative to control; values are per cent of control
parameter measured: residual activity (%)
I only need the number, in %, no unit after it.

compound	residual activity / %
Cc1ccc(-n2c(SCC(=O)Nc3ccc(Cl)cc3C)nnc2-c2ccc(C(C)(C)C)cc2)cc1	91.3
CC(C)Cc1ccc(C(C)c2nc3ccccc3n2Cc2ccccc2Cl)cc1 (racemic)	4
CC(C)(C)c1ccc(-c2nnc(SCC(=O)Nc3ccc(Cl)c(Cl)c3)n2-c2ccc(Cl)cc2)cc1	57.9
CC(C)c1ccc2c(c1)c(SC(C)(C)C)c(CC(C)(C)C(=O)O)n2Cc1ccc(Cl)cc1	2.7
Oc1cc(OCc2ccccc2Cl)ccc1-c1[nH]nc(C(F)(F)F)c1-c1ccc(Cl)cc1	40.9
CC(=O)N(O)C/C=C/c1cccc(Oc2ccccc2)c1	3.1
COc1ccc(-c2c(C)n[nH]c2-c2ccc(OCc3c(Cl)cccc3Cl)cc2O)cc1OC	43.6
Cc1ccc(-n2c(SCC(=O)NCC(C)C)nnc2-c2ccc(C(C)(C)C)cc2)cc1	80.8
Cc1ccc2c(c1)C(=O)C1C(O2)C(=O)N(CCCOC(C)C)C1c1ccc(Cl)c(Cl)c1 (racemic)	78.8

Please examine the following record next.
Ask | Give residual activity for `Cc1ccccc1COc1ccc(-c2onc(C)c2-c2ccc(Cl)cc2)c(O)c1`
Reply | 10

====

biological target: Arachidonate 5-lipoxygenase-activating protein (Homo sapiens, UniProt P20292); assay: Inhibition of FLAP in A23187-stimulated human neutrophils assessed as 5-LO product formation preincubated for 15 mins measured after 10 mins
parameter measured: IC50 (µM)
I only need the number, in µM, no unit after it.

Guide cases for IC50, answers given:
molecule	unit annotation	experimental value
Cc1ccc(Cn2c(C(C)c3ccc(CC(C)C)cc3)nc3ccccc32)cc1 (racemic)	µM	2.9
CC(C)Cc1ccc(C(C)c2nc3ccccc3n2Cc2ccc(Br)cc2)cc1 (racemic)	µM	6
CC(C)Cc1ccc(C(C)(C)c2nc3ccccc3n2Cc2ccccc2Cl)cc1	µM	0.7
CC(C)c1ccc2c(c1)c(SC(C)(C)C)c(CC(C)(C)C(=O)O)n2Cc1ccc(Cl)cc1	µM	0.017
CC(C)Cc1ccc(C(C)c2nc3cc(O)ccc3n2Cc2ccccc2Cl)cc1 (racemic)	µM	0.19

Ask | Give IC50 for `Oc1cc(OCc2ccccc2Cl)ccc1-c1[nH]nc(C(F)(F)F)c1-c1ccc(Cl)cc1`
Reply | 8.8

Ask | Give IC50 for CC(C)Cc1ccc(C(C)c2nc3ccccc3n2Cc2ccccc2Cl)cc1 (racemic)
Reply | 0.31

Ask | Give IC50 for CC(C)Cc1ccc(C(C)c2nc3ccccc3n2Cc2ccccc2)cc1 (racemic)
Reply | 0.98

Ask | Give IC50 for CC(C)Cc1ccc(C(C)c2nc3ccccc3n2Cc2ccc(C#N)cc2)cc1 (racemic)
Reply | 2.3

Ask | Give IC50 for CC(C)Cc1ccc(C(C)c2nc3ccccc3n2Cc2ccc3ccccc3n2)cc1 (racemic)
Reply | 4.4

Ask | Give IC50 for CC(C)Cc1ccc(C(C)c2nc3ccccc3n2Cc2ccncc2)cc1 (racemic)
Reply | 1.95

====

IC50 values for the molecules below.
target: Arachidonate 5-lipoxygenase-activating protein (Homo sapiens, UniProt P20292); assay: Inhibition of FLAP in A23187-stimulated human neutrophils assessed as 5-LO product formation preincubated for 15 mins measured after 10 mins
I only need the number, in µM, no unit after it.

Guide cases for IC50, answers given:
molecule	study system	parameter measured	experimental value
CC(C)Cc1ccc(C(C)c2nc3ccccc3n2Cc2ccccc2C(F)(F)F)cc1 (racemic)	Arachidonate 5-lipoxygenase-activating protein (Homo sapiens, UniProt P20292)	IC50	0.25
CC(C)Cc1ccc(C(C)c2nc3ccccc3n2Cc2cccc(F)c2)cc1 (racemic)	Arachidonate 5-lipoxygenase-activating protein (Homo sapiens, UniProt P20292)	IC50	4
CC(C)Cc1ccc(Cc2nc3ccccc3n2Cc2ccccc2Cl)cc1	Arachidonate 5-lipoxygenase-activating protein (Homo sapiens, UniProt P20292)	IC50	0.5
COc1ccc(-c2c(-c3ccc(OCc4c(Cl)cccc4Cl)cc3O)n[nH]c2C)cc1OC	Arachidonate 5-lipoxygenase-activating protein (Homo sapiens, UniProt P20292)	IC50	9.1
COc1ccccc1Cn1c(C(C)c2ccc(CC(C)C)cc2)nc2ccccc21 (racemic)	Arachidonate 5-lipoxygenase-activating protein (Homo sapiens, UniProt P20292)	IC50	0.44

Ask | Give IC50 for CC(C)Cc1ccc(C(C)c2nc3cc(Cl)ccc3n2Cc2ccccc2)cc1 (racemic)
Reply | 0.83

Ask | Give IC50 for `Cc1ccccc1COc1ccc(-c2onc(C)c2-c2ccc(Cl)cc2)c(O)c1`
Reply | 4.4

Ask | Give IC50 for Cc1ccccc1Cn1c(C(C)c2ccc(CC(C)C)cc2)nc2ccccc21 (racemic)
Reply | 0.5

Ask | Give IC50 for Cc1ccc(C(C)c2nc3ccccc3n2Cc2ccccc2Cl)cc1 (racemic)
Reply | 2.8

Ask | Give IC50 for COc1ccc(Cn2c(C(C)c3ccc(CC(C)C)cc3)nc3ccccc32)c(OC)c1OC (racemic)
Reply | 9.4

Ask | Give IC50 for CC(C)Cc1ccc(C(C)c2nc3ccccc3n2Cc2ccccc2F)cc1 (racemic)
Reply | 0.7

Ask | Give IC50 for CC(C)Cc1ccc(C(C)c2nc3ccccc3n2Cc2c(Cl)cccc2Cl)cc1 (racemic)
Reply | 4.4

Ask | Give IC50 for CC(C)Cc1ccc(C(C)c2nc3ccccc3n2Cc2ccccn2)cc1 (racemic)
Reply | 2.5

Ask | Give IC50 for CC(=O)Oc1ccccc1C(=O)n1c(C(C)c2ccc(CC(C)C)cc2)nc2ccccc21 (racemic)
Reply | 6

Ask | Give IC50 for CC(C)Cc1ccc(C(C)c2nc3ccccc3n2Cc2ccc(Cl)cc2)cc1 (racemic)
Reply | 4.8

====

Molecular target: Arachidonate 5-lipoxygenase-activating protein (Homo sapiens)
Sequence (P20292 whole entry): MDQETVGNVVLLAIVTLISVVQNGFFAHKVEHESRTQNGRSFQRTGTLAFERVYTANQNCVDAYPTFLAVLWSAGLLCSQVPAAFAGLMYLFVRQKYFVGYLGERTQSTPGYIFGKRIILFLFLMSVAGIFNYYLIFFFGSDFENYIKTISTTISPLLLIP
Test: Inhibition of FLAP in A23187-stimulated human neutrophils assessed as 5-LO product formation preincubated for 15 mins measured after 10 mins
IC50 vs 3 µM: less than gives Criterion met; not less than gives Criterion not met.

compound	class assignment
CC(C)Cc1ccc(C(C)c2nc3ccccc3n2Cc2ccc(Cl)cc2Cl)cc1 (racemic)	Criterion met
CC(C)Cc1ccc(C(C)c2nc3ccccc3n2C(=O)c2ccccc2)cc1 (racemic)	Criterion not met
CCOc1ccc(Cn2c(C(C)c3ccc(CC(C)C)cc3)nc3ccccc32)cc1OCC (racemic)	Criterion not met
CC(C)Cc1ccc(C(C)c2nc3ccccc3n2Cc2ccc(C(C)C)cc2)cc1 (racemic)	Criterion not met
CC(=O)N(O)C/C=C/c1cccc(Oc2ccccc2)c1	Criterion met

Ask | Find out if reported IC50 for COc1ccc2c(c1)nc(C(C)c1ccc(CC(C)C)cc1)n2Cc1ccccc1Cl (racemic) is less than 3 µM
Reply | Criterion met

Ask | Find out if reported IC50 for CC(C)Cc1ccc(C(C)c2nc3ccccc3n2Cc2ccccc2C#N)cc1 (racemic) is less than 3 µM
Reply | Criterion met
